- targetDesc: RON (human) (Homo sapiens, UniProt Q04912)
- Sequence (Q04912 25-1400): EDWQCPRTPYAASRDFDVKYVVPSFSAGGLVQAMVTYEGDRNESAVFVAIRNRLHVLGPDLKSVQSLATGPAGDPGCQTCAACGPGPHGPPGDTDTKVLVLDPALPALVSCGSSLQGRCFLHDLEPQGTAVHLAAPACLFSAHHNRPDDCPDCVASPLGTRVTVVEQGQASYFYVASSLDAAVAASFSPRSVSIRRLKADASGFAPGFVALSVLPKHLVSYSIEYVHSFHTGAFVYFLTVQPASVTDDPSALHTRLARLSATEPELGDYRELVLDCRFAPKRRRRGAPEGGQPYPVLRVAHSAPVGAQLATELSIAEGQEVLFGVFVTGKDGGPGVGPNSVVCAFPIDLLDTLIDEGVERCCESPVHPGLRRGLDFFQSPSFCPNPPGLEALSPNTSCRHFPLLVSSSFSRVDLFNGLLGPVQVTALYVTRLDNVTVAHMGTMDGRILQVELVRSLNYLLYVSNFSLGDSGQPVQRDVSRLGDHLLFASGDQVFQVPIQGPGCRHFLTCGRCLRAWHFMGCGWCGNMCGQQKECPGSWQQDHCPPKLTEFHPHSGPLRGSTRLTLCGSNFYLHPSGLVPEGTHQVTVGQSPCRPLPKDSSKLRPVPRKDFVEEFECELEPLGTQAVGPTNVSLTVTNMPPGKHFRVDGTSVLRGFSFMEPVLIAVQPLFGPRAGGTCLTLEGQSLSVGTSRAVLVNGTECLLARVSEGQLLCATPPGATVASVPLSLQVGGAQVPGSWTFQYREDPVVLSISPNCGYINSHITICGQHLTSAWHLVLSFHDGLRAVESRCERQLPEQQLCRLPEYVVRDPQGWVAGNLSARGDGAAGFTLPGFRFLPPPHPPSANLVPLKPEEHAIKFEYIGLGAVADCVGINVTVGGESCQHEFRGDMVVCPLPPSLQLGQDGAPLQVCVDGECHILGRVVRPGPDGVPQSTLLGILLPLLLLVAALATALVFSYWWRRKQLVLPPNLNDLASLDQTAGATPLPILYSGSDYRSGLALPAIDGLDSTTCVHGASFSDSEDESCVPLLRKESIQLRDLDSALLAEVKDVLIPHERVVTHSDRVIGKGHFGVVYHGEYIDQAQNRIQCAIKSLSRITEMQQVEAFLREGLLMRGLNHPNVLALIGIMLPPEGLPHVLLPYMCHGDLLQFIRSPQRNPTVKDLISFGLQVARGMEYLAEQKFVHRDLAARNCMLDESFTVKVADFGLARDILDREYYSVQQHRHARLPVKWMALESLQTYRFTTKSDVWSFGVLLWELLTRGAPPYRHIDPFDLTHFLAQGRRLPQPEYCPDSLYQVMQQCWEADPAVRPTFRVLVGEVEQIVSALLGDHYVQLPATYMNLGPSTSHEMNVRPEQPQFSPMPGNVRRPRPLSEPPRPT
- test: RON (human) AlphaScreen kinase assay, Km of ATP
- Format: biochemical
- particulars: AlphaScreen, Km of ATP; read-out: RON biochemical IC50
Give IC50 for every item shown.

compound	IC50
C[C@@H](Oc1c(N)ncc2c(C3=CCN(C(=O)C(C)(C)O)CC3)coc12)c1c(Cl)ccc(F)c1Cl	500 to 5000 nM

Would you mind listing IC50 for each of the following compounds?
1. Cc1cscc1-c1coc2c(O[C@H](C)c3c(Cl)ccc(F)c3Cl)c(N)ncc12
2. C[C@@H](Oc1c(N)ncc2c(-c3ccc(C(=O)N4CCN(CCO)CC4)cc3)coc12)c1c(Cl)ccc(F)c1Cl

["500 to 5000 nM", "< 500 nM"]

Working through the 2 compounds below one at a time, give IC50 for each.
1. C[C@@H](Oc1c(N)ncc2c(-c3csc(CN4CCC(O)C4)c3)coc12)c1c(Cl)ccc(F)c1Cl (stereo partly shown)
2. C[C@@H](Oc1c(N)ncc2c(C3=CCCC(N)C3)coc12)c1c(Cl)ccc(F)c1Cl (stereo partly shown)

< 500 nM
< 500 nM

// input: 8 compounds below; output: IC50 for each
1. C[C@@H](Oc1c(N)ncc2c(C(=O)NCC3CCN(C)CC3)coc12)c1c(Cl)ccc(F)c1Cl
2. CNC(=O)c1coc2c(O[C@H](C)c3c(Cl)ccc(F)c3Cl)c(N)ncc12
3. C[C@@H](Oc1c(N)ncc2c(C3=CCN(C(=O)[C@@H](N)CO)CC3)coc12)c1c(Cl)ccc(F)c1Cl
4. Nc1ncc2c(-c3cnn(C4CCNCC4)c3)coc2c1OC1CCCc2cccc(Cl)c21 (stereo not shown)
5. COCCNC(=O)c1coc2c(O[C@H](C)c3c(Cl)ccc(F)c3Cl)c(N)ncc12
6. CC(Oc1c(N)ncc2c(-c3cnn(C4CCNCC4)c3)coc12)c1ccc(Cl)c(F)c1 (stereo not shown)
7. Cc1c(F)cccc1C(C)Oc1c(N)ncc2c(-c3cnn(C4CCNCC4)c3)coc12 (stereo not shown)
8. C[C@@H](Oc1c(N)ncc2c(C3=CCSCC3)coc12)c1c(Cl)ccc(F)c1Cl

["500 to 5000 nM", "500 to 5000 nM", "< 500 nM", "500 to 5000 nM", "500 to 5000 nM", "< 500 nM", "500 to 5000 nM", "500 to 5000 nM"]

For each listed entry, give its IC50.
1. C[C@@H](Oc1c(N)ncc2c(C3=CCN(C(=O)NC(C)(C)C)CC3)coc12)c1c(Cl)ccc(F)c1Cl
2. C[C@@H](Oc1c(N)ncc2c(C(=O)O)coc12)c1c(Cl)ccc(F)c1Cl
3. C#CCC(Oc1c(N)ncc2c(C3=CCN(C(N)=O)CC3)coc12)c1c(Cl)ccc(F)c1Cl (stereo not shown)

1: 500 to 5000 nM; 2: 5000 to 20000 nM; 3: 500 to 5000 nM
